System: OVCAR-8 ovarian
Assay: NCI-60 one-dose screen, 48 h (100 = growth as untreated, 0 = no growth, -100 = all killed)
Details: 10 µM unless noted
About 83,000 compounds went through this panel and 20% of them were active in at least one assay; those are over-represented in the sample as a whole.
valueKind: growth (%)
Reply with just the number (in %).

Param readout = growth; param system = OVCAR-8 ovarian; param query = CC(=O)OCc1cc[c]([Hg][Cl])o1 ; response: value
36.8

Param readout = growth; param system = OVCAR-8 ovarian; param query = CC12CCC(O)CC1=CCC1C2CCC2(C)C(O)CCC12 (stereo unspecified) ; response: value
112

Query for OVCAR-8 ovarian: what growth does the record show for Cc1cc(N(CCCl)CCCl)ccc1C=Nc1ccc(-c2csc(Cc3ccccc3)n2)cc1 ?
65

What measured growth is associated with Cc1cccc(N2CCN(C(C)C#N)CC2)c1 (stereo unspecified) on OVCAR-8 ovarian?
106

// map CC(CC1CCCCC1)NCc1ccccc1 (stereo unspecified) to recorded growth (system: OVCAR-8 ovarian)
106

Please state recorded growth (tested on OVCAR-8 ovarian) of Nc1ccc2c(c1)Cc1cc(Br)ccc1-2
107

Form: Entry = C[CH2][Sn]([Cl])([Cl])[CH2]C.Oc1ccccc1C=NCCN=Cc1ccccc1O | System = OVCAR-8 ovarian | growth = ____
100

Entry COC[C@@H]1C[C@@]2(C)[C@@H](CC[C@@H]3[C@@H]2CC[C@@]2(C)[C@H]3CC[C@]2(C)O)CC1=O , system OVCAR-8 ovarian: what growth was measured?
95.8

Give growth (OVCAR-8 ovarian) of the following molecule: CC(=O)OC[C@]1(C)C=C2C(=O)[C@](C)(O)C3(CC3)C(C)=C2[C@H]1O
-0.446

Item Cc1ccc(C(Cc2ccccc2)NCCO)cc1 (stereo unspecified) with OVCAR-8 ovarian - growth?
103

OVCAR-8 ovarian / growth / CS(=O)(=O)CCN1CC2CCCC(C2)C1 : value?
104

Give OVCAR-8 ovarian growth for NC(N)=N/N=C\c1c[nH]c2ccc(Br)cc12
83.1

Fill in the recorded growth for this molecule, with OVCAR-8 ovarian as test system: CC(=O)Nc1ccc(NC(=O)c2ccc([As](O)O)cc2)cc1
102

// lookup growth | system=OVCAR-8 ovarian | key= CN(C)CCCOc1ccc2c(c1)c(C(=O)C(=O)NCCO)cn2Cc1ccccc1
98.1

Tell me reported growth for COC(=O)[C@@H](C)C[C@H](Cc1ccccc1)NC(=O)c1csc([C@@H](C[C@H](C(C)C)N(C)C(=O)[C@@H](NC(=O)C23CC(NC(C)=O)(C2)C3)C2CC2)OC(C)=O)n1 , tested with OVCAR-8 ovarian.
69.1

Record lookup: for OVCAR-8 ovarian, what growth belongs to CC1=C(CCCOC(=O)CN)C2=C(C)C3(CC3)[C@@](C)(O)C(=O)C2=C1 ?
73.8

What reported growth corresponds to c1ccc(Nc2nc(-c3ccccc3)c[se]2)cc1 on OVCAR-8 ovarian?
96.3

// lookup growth | system=OVCAR-8 ovarian | key= O=[N+]([O-])c1cnc[nH]1
109

OVCAR-8 ovarian / growth / COC(=O)[C@@H](C)C[C@H](Cc1ccccc1)NC(=O)c1nc([C@@H](C[C@H](C(C)C)N(C)C(=O)[C@@H](NC(=O)[C@H]2CCCCN2C)C(C)C)OC(C)=O)sc1C : value?
15

Which growth is reported with OVCAR-8 ovarian for this entry: CN1C(=O)N[C@H]2[C@@H]3NC(=O)c4ccc(Br)n4[C@@H]3C[C@]21O ?
-12.4

Param readout = growth; param system = OVCAR-8 ovarian; param query = C/C1=C/C(=O)O[C@@H]2C[C@@H](CC[C@H](C)/C=C\C=C\CC1)O[C@@](O)([C@@H]1CSC(=O)N1CO)C2 ; response: value
42.8
